Recorded cytotoxicity at 10 µM, one value per entry.
Test system: E. multilocularis metacestodes
test.description: PGI-assay: drug-induced damage on in vitro cultured metacestodes (Pathogen Box screening cascade and EC50)
Type: cell-based, Echinococcus multilocularis
recorded.conditions: Echinococcus multilocularis, 288 h; 10 µM, singlets, 12 days of incubation; read-out: PGI release, % of the Tx-100 control, 12d

- molecule: "COC(=O)C1=C(C)NC(C)=C(C(=O)OC(C)C)C1c1cccc2nonc12 (stereo not shown) [MMV001493, Isradipine, reference compound]"
  unit.descriptor: "%"
  cytotoxicity at 10 µM: 0.0436
- molecule: "COc1nc2ccc(Br)cc2cc1[C@@H](c1ccccc1)[C@@](O)(CCN(C)C)c1cccc2ccccc12 [MMV689758, Bedaquiline, reference compound]"
  unit.descriptor: "%"
  cytotoxicity at 10 µM: -3.22
- molecule: "Nc1ncnc2c1ncn2C[C@@H](O)[C@@H](O)C(=O)O [MMV689255, Eritadenine]"
  unit.descriptor: "%"
  cytotoxicity at 10 µM: 0.51
- molecule: "CC(C)(C)C(O)C(Oc1ccc(-c2ccccc2)cc1)n1cncn1 (stereo not shown) [MMV688942, Bitertanol]"
  unit.descriptor: "%"
  cytotoxicity at 10 µM: 0.41

Where these numbers come from: paper PMC6216040
